Numbers sourced from patent US11608323B2.

- Tested on: ECHCG
- test.name: Pre-emergence herbicidal activity, glasshouse pot test
- Format: in vivo
- reported.conditions: rate 1000 g/Ha, evaluated after 13 days, scale 0-5
- Method: Seeds of a variety of test species were sown in standard soil in pots. […] After 13 days, the test was evaluated (5=total damage to plant; 0=no damage to plant).
Known ECHCG damage score, application pre-emergence of a selection of molecules

CON1C(=O)N(c2cc(C(F)(F)Cl)ccn2)C(O)[C@@H]1C (stereo partly drawn) [Compound A90] has a reported ECHCG damage score, application pre-emergence of 4

CC(C)OC1C(O)N(c2cc(C(F)(F)F)ccn2)C(=O)N1C (stereo not drawn) [Compound A48] has a reported ECHCG damage score, application pre-emergence of 1

CCOC1C(O)N(c2cc(C(F)(F)F)c(OC)cn2)C(=O)N1C (stereo not drawn) [Compound A10] has a reported ECHCG damage score, application pre-emergence of 5

CCOC1C(O)N(c2cc(C(F)(F)F)c(-c3ccccc3)cn2)C(=O)N1C (stereo not drawn) [Compound A13] has a reported ECHCG damage score, application pre-emergence of 3

O=C1N(c2cc(C(F)(F)F)ccn2)C(O)[C@H]2CCCN12 (stereo partly drawn) [Compound A47] has a reported ECHCG damage score, application pre-emergence of 5
